System Name: T1, Human PTGFRN-ECD (extracellular domain; amino-acid 26 to amino-acid Y at 832), His-tag protein (human, UniProt Q9P2B2 26-832)
T1 construct: range 26-832; Expressed in Hek-293 cells, purified on a nickel column; also called recombinant PTGFRN; not shown: His-tag
T1 sequence (looked up): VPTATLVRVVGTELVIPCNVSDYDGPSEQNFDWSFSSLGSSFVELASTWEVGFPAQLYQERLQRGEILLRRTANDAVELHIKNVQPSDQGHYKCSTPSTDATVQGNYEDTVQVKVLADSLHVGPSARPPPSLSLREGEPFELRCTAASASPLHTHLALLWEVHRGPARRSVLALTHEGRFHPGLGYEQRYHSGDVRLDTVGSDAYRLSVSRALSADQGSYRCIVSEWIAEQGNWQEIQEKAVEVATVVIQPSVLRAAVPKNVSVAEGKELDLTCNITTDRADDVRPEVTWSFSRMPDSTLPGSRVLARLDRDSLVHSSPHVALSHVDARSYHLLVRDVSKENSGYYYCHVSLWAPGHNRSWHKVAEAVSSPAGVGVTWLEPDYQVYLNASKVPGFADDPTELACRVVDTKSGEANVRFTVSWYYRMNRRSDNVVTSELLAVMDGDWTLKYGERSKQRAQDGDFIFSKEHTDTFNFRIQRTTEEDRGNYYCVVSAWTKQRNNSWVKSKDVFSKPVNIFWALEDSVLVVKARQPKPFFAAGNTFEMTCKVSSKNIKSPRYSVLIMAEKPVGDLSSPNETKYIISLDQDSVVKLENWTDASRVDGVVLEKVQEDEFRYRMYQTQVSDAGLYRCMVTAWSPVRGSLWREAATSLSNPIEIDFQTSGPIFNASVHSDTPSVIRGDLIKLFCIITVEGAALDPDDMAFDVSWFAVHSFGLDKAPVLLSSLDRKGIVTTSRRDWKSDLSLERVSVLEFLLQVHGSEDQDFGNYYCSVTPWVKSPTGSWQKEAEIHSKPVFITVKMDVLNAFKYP
Method: Octet Red96 pairing (binning matrix) on PTGFRN-ECD; capture Ab (1st loading Ab): 7B4
# Octet pairing response values compiled below

Worked cases, answers included:
Binder	Octet pairing response
10D9 (antibody, V domains shown, Mouse hybridoma mAb) VH: DVQLQESGPGLVKPSQSLSLTCSVTGCSITSGYDWNWIRQFPGNKLEWMGYINYDGNSNYIPSLKNRVSITRDTSKNQFFLKLNSVTTEDTATYYCARSDGYYWYFDVWGTGTTVTVSS VL: DIKMTQSPSSMYASLGERVTITCKASQDIKSYLSWYQQKPWKSPKTLIYYATSLADGVPSRFSASGSGQDYSLTISSLESDDTATYYCLQHAERPLTFGAGTKLELK	0.1
9A9 (antibody, V domains shown, Mouse hybridoma mAb) VH: QVQLQQSGPELVKPGASVKLSCKASGYTFTTYDINWVKQRPGQGLEWIGWLYPRDGNTNYNEKFKGKASLTVDTSSSTAYMELHSLTSEDSAVYFCARDYYGSTYGYFDYWGQGTTLTVSS VL: DIQMTQSPASLSASVGGTVTITCRASEKIYSYLAWYQQKQGKSPQLLVYDANTLAQGVPSRFSGSGSGTQFSLKINSLQPEDFGSYYCQHHYVTPLTFGAGTKLALK	0.162

Please look at the following binder next.
Enquiry: # lookup: Octet pairing response of 1E2 (antibody, V domains shown, Mouse hybridoma mAb) VH: DVQLQESGPGLVKPSQSLSLTCSVTDYSITSGYYWNWIRQFPGNKLEWMGYISYDGSNNYNPSLKNRLSITRDTSKNQFFLKLNSVTPEDTATYYCARGWDYCFDYWGQGATLTVSS VL: DIQMTQTTSSLSASLGDRVTISCSASQGISNYLNWYQQKPDGTVKLLIYYTSGLHSGVPSRFSGSGSGTDYSLTISNLEPEDIATYYCQQYSQLPWTFGGGTKLEIK
Return: 0.157
